Test: in vivo
Details: female, Sprague-Dawley (SD), rat, in vivo, iv, 1.5 mg/kg, 100 brain concentration
readout_type: concentration at 0.25 h (ng/g)
Give the number; ng/g is assumed, so skip it.

Lookup: Given CN1CCN(C(=O)C2C3CCC(O3)C2C(=O)O)CC1 (stereo not shown) [Compound 100] , state its recorded concentration at 0.25 h.
Found: 46.9

----------
Experiment: Pharmacokinetic study of 153 (and metabolite endothal) in SD rats, iv and po; plasma, liver, brain
Assay type: in vivo
Details: female, SD, rat, in vivo, iv, 1.25 mg/kg, iv 1.25 mg/kg, 10 hr, Rat 2; abnormal, not included in the calculation
readout_type: concentration at 10 h (ng/mL)
Write the value in ng/mL as a bare number.

Lookup: So what's the measured concentration at 10 h for this one? CCCOC(=O)C1C2CCC(O2)C1C(=O)N1CCN(C)CC1 (stereo not shown)
Found: 9.42

----------
Assay: Pharmacokinetic study of 153 (and metabolite endothal) in SD rats, iv and po; plasma, liver, brain
Assay type: in vivo
Conditions: female, SD, rat, in vivo; 153 iv 1.25 mg/kg; read-out: AUClast of 153 in plasma
readout_type: AUC(0-t) (ng·h/mL)
# output: bare number, implied unit ng·h/mL

Lookup: For CCCOC(=O)C1C2CCC(O2)C1C(=O)N1CCN(C)CC1 (stereo not shown) , what is its reported AUC(0-t)?
Found: 295

----------
Assay: Pharmacokinetic study of 157 (and metabolite endothal) in SD rats, iv and po; plasma, liver, brain
Assay type: in vivo
Conditions: female, Sprague-Dawley (SD), rat, in vivo, iv, 1.5 mg/kg, 157 in Brain, iv 1.5 mg/kg, rat 1; read-out: Cmax
Procedure: The blood, liver and brain tissue samples were collected at predetermined times from rats. […] Compound were diluted shortly before use in 4% sodium bicarbonate for sterile injection (this is the standard pediatric solution of NaHCO3 with a pH of about 8.5). Compound 153 was freshly prepared by diluting the drugs shortly before use in 4% sodium bicarbonate for sterile injection (this is the standard pediatric solution of NaHCO3 with a pH of about 8.5). […]
readout_type: Cmax (ng/g)
// note: answer is a bare numeric in ng/g

Lookup: Find the recorded Cmax belonging to CCCCCCCOC(=O)C1C2CCC(O2)C1C(=O)N1CCN(C)CC1 (stereo not shown) and report it.
Found: 60

----------
Assay: Pharmacokinetic study of 153 (and metabolite endothal) in SD rats, iv and po; plasma, liver, brain
Assay type: in vivo
Details: female, SD, rat, in vivo, po, 1.25 mg/kg, 153 in plasma, PO 1.25 mg/kg, rat 1; read-out: T1/2 (converted)
readout_type: half-life
Dear colleague, please send the value followed by its unit.

Lookup: Value lookup for half-life; key = CCCOC(=O)C1C2CCC(O2)C1C(=O)N1CCN(C)CC1 (stereo not shown) [Compound 153]
Found: 19.8 min

----------
Experiment: in vivo
Settings: male, Sprague-Dawley (SD), rat, in vivo, po, 10 mg/kg, Plasma Concentration of 100
readout_type: concentration at 9 h (ng/mL)
Report the figure in ng/mL without appending any unit label.

Lookup: Any idea what concentration at 9 h was measured for CN1CCN(C(=O)C2C3CCC(O3)C2C(=O)O)CC1 (stereo not shown) ?
Found: 31.3

----------
Assay: Pharmacokinetic study of 157 (and metabolite endothal) in SD rats, iv and po; plasma, liver, brain
Assay type: in vivo
Settings: female, SD (Sprague-Dawley), rat, in vivo, po, 1.5 mg/kg, 157 in plasma, PO 1.5 mg/kg, rat 1; read-out: Cmax
readout_type: Cmax (ng/mL)
All answers are understood in ng/mL, so give the number only.

Lookup: Cmax for CCCCCCCOC(=O)C1C2CCC(O2)C1C(=O)N1CCN(C)CC1 (stereo not shown) [Compound 157] ?
Found: 5.92

----------
Assay: in vivo
Parameters: species or system SD rats
Settings: male, SD, rat, po, 1.4 mg/kg, plasma concentration of 113
readout_type: concentration at 1 h (ng/mL)
Provide the reading as a plain figure in ng/mL.

Lookup: Which concentration at 1 h is reported for this molecule? CN1CCN(C(=O)C2C(C(=O)OCC(Cl)(Cl)Cl)[C@H]3CC[C@@H]2O3)CC1 (stereo partly shown)
Found: 4.61

----------
Test system: glioblastoma (U-87) cells
Experiment: WST cell viability assay, U-87 MG
Assay type: cell-based
Details: WST-20131024 (second value of the cell); read-out: IC50 U-87 MG
readout_type: IC50

Lookup: Look up IC50 with glioblastoma (U-87) cells for this compound: CCCCCCCCCCCCCCCCCOC(=O)C1C2CCC(O2)C1C(=O)N1CCN(C)CC1 (stereo not shown)
Found: 5.07 µM

----------
Assay: Pharmacokinetic study of 153 (and metabolite endothal) in SD rats, iv and po; plasma, liver, brain
Type: in vivo
Conditions: female, SD, rat, in vivo, iv, 1.25 mg/kg, 153 iv 1.25 mg/kg; read-out: T1/2 of 153 in brain (converted)
readout_type: half-life (min)
Numeric only. Scale: min

Lookup: # half-life lookup, item CCCOC(=O)C1C2CCC(O2)C1C(=O)N1CCN(C)CC1 (stereo not shown)
Found: 35.8

----------
Assay: Pharmacokinetic study of 157 (and metabolite endothal) in SD rats, iv and po; plasma, liver, brain
Type: in vivo
Settings: female, Sprague-Dawley (SD), rat, in vivo, po, 1.5 mg/kg, 157 in plasma, PO 1.5 mg/kg, rat 2; read-out: AUC
readout_type: AUC

Lookup: # get_value(readout='AUC', item= CCCCCCCOC(=O)C1C2CCC(O2)C1C(=O)N1CCN(C)CC1 (stereo not shown) )
Found: 3 ng·h/mL

----------
Experiment: in vivo
Parameters: species or system SD rats
Conditions: male, Sprague-Dawley, rat, iv, 1.4 mg/kg, AUC(0-t) ratio of liver over plasma, 113
readout_type: Kp

Lookup: Using the record for CN1CCN(C(=O)C2C(C(=O)OCC(Cl)(Cl)Cl)[C@H]3CC[C@@H]2O3)CC1 (stereo partly shown) [Compound 113] , report its Kp.
Found: 18.1

----------
Experiment: Pharmacokinetic study of 153 (and metabolite endothal) in SD rats, iv and po; plasma, liver, brain
Assay type: in vivo
Conditions: female, SD, rat, in vivo, iv, 1.25 mg/kg, 153 in plasma, IV 1.25 mg/kg, Mean; read-out: T1/2 (converted)
readout_type: half-life (min)
Supply the numeric figure in min, leaving out any unit text.

Lookup: I would be grateful if you could share the reported half-life for CCCOC(=O)C1C2CCC(O2)C1C(=O)N1CCN(C)CC1 (stereo not shown) .
Found: 55.3

----------
Assay: Pharmacokinetic study of 153 (and metabolite endothal) in SD rats, iv and po; plasma, liver, brain
Format: in vivo
Details: female, SD, rat, in vivo, po, 1.25 mg/kg, 153 in plasma, PO 1.25 mg/kg, Mean; read-out: MRT (0-t)
readout_type: MRT last
Just so you know, I need the unit written after the number.

Lookup: Requested read-out: MRT last. Entry: CCCOC(=O)C1C2CCC(O2)C1C(=O)N1CCN(C)CC1 (stereo not shown)
Found: 1.01 h

----------
Test: Pharmacokinetic study of 157 (and metabolite endothal) in SD rats, iv and po; plasma, liver, brain
Assay type: in vivo
Details: female, Sprague-Dawley (SD), in vivo; 157 in plasma, PO 1.5 mg/kg, rat 2; read-out: Tmax
readout_type: Tmax (min)
Numbers only; they are read as min.

Lookup: Recorded Tmax for CCCCCCCOC(=O)C1C2CCC(O2)C1C(=O)N1CCN(C)CC1 (stereo not shown) [Compound 157] , please?
Found: 30

----------
Test: Pharmacokinetic study of 153 (and metabolite endothal) in SD rats, iv and po; plasma, liver, brain
Format: in vivo
Details: female, SD, rat, in vivo, iv, 1.25 mg/kg, iv 1.25 mg/kg, 6 hr, Rat 2
readout_type: concentration at 6 h (ng/mL)
Write the number in ng/mL without appending the unit.

Lookup: Consider the compound CCCOC(=O)C1C2CCC(O2)C1C(=O)N1CCN(C)CC1 (stereo not shown) and give its measured concentration at 6 h.
Found: 1.02

----------
Assay: Pharmacokinetic study of 157 (and metabolite endothal) in SD rats, iv and po; plasma, liver, brain
Assay type: in vivo
Settings: female, SD, rat, in vivo, iv, 1.5 mg/kg, 157 iv 1.5 mg/kg; read-out: mean Cmax of 157 in brain
readout_type: Cmax (ng/g)
Write the value in ng/g as a bare number.

Lookup: Please give the measured Cmax for this compound: CCCCCCCOC(=O)C1C2CCC(O2)C1C(=O)N1CCN(C)CC1 (stereo not shown) [Compound 157]
Found: 60

----------
Experiment: Pharmacokinetic study of 157 (and metabolite endothal) in SD rats, iv and po; plasma, liver, brain
Type: in vivo
Settings: female, Sprague-Dawley (SD), rat, in vivo, po, 1.5 mg/kg, PO 1.5 mg/kg, 2 hr, Rat 2; read-out: 157 plasma concentration
readout_type: concentration at 2 h (ng/mL)
Form entry: value (ng/mL) — number only.

Lookup: If you can, please state the reported concentration at 2 h value of CCCCCCCOC(=O)C1C2CCC(O2)C1C(=O)N1CCN(C)CC1 (stereo not shown) [Compound 157] .
Found: 0.194
